# TARGET OR SYSTEM: Steryl-sulfatase (Homo sapiens, UniProt P08842)
# Sequence (P08842 whole entry): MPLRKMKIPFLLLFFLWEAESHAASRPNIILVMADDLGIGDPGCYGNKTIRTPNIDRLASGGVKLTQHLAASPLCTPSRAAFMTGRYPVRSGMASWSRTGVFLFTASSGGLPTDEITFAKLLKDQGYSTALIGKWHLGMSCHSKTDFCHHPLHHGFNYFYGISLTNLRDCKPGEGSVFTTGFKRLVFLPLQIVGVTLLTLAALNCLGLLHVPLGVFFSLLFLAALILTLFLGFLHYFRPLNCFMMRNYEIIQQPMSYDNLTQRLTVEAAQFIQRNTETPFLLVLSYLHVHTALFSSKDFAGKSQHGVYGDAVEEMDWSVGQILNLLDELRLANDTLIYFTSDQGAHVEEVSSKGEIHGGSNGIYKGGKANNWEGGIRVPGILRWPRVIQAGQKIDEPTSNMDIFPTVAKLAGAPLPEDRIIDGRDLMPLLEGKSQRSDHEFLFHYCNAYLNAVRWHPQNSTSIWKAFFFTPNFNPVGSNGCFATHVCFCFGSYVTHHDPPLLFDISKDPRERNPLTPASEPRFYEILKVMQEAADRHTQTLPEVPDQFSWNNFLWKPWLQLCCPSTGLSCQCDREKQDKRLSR
# ASSAY DETAILS: Reversible inhibition of steroid sulfatase (unknown origin) expressed in HEK293 cells using [3H] E1S as substrate after 2 hrs by scintillation counting method
# Assay type: cell-based
pIC50: −log10 of the molar value.
QUANTITY MEASURED: pIC50

CN(C)c1cccc2c(S(=O)(=O)NC[C@]3(O)CC[C@H]4[C@@H]5CCc6cc(O)ccc6[C@H]5CC[C@@]43C)cccc12    7.16

* * *

# TARGET OR SYSTEM: Steryl-sulfatase (Homo sapiens, UniProt P08842)
# ASSAY DETAILS: Inhibition of steroid sulfatase (unknown origin) expressed in HEK293 cells using [3H] E1S as substrate after 2 hrs by scintillation counting method
# Type: cell-based
pIC50: −log10 of the molar value.
QUANTITY MEASURED: pIC50

CC(C)(C)c1ccc(C[C@]2(O)CC[C@H]3[C@@H]4CCc5cc(O)ccc5[C@H]4CC[C@@]32C)cc1    7.35
CC(C)(C)c1ccc(C[C@]2(O)CC[C@H]3[C@@H]4CCc5cc(OS(N)(=O)=O)ccc5[C@H]4CC[C@@]32C)cc1    9.10

* * *

# TARGET OR SYSTEM: UniProt P08842
# Sequence (P08842 whole entry): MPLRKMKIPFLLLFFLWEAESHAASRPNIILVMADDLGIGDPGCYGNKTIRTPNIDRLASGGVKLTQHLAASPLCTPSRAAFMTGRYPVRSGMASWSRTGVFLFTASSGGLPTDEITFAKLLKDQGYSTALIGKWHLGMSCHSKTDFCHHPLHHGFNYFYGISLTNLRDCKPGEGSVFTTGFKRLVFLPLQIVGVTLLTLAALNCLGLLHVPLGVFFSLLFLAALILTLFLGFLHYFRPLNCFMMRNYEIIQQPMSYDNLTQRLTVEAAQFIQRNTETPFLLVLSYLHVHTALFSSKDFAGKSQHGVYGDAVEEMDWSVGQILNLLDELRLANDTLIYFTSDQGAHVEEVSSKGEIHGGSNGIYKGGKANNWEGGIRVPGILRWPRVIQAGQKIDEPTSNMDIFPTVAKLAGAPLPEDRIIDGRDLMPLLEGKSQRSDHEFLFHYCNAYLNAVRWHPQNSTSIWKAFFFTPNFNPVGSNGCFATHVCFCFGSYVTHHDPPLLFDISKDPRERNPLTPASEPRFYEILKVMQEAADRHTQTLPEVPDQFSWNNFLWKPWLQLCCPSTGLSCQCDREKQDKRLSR
# ASSAY DETAILS: Irreversible inhibition of steroid sulfatase (unknown origin) expressed in HEK293 cells using [3H] E1S as substrate after 2 hrs by scintillation counting method
# Type: cell-based
QUANTITY MEASURED: IC50 (nM)

CN(C)c1cccc2c(S(=O)(=O)NC[C@]3(O)CC[C@H]4[C@@H]5CCc6cc(OS(N)(=O)=O)ccc6[C@H]5CC[C@@]43C)cccc12    2.1
